Source: the supplement of paper PMC9780213

- Tested on: U2OS
- EXPERIMENT_DESCRIPTION: cell count relative to DMSO control (panel A, nuclei/RNA/PMG/mitochondria stain) (fraction of control); higher = more cells (less toxicity)
- RECORDED_CONDITIONS: 5 µM; treatment time: 24 h
QUANTITY_NAME: cell count
Please reply with the value in numeric form only.

Guide cases for cell count, answers given:
- COc1ccc2cc1Oc1ccc(cc1)C[C@H]1c3cc(c(OC)cc3CCN1C)Oc1c(OC)c(OC)cc3c1[C@H](C2)N(C)CC3: 0.905
- N#CC(C#N)=NNc1ccc(OC(F)(F)F)cc1: 0.897

Switching to the query record.
Lookup: What value of cell count has been reported for the following compound? CC[C@@]1([C@@H]2O[C@@H]([C@H]3O[C@@](O)(CO)[C@H](C)C[C@@H]3C)C[C@@H]2C)CC[C@H]([C@]2(C)CC[C@]3(C[C@H](O)[C@@H](C)[C@@H]([C@@H](C)[C@@H](OC)[C@H](C)C(=O)O)O3)O2)O1
Found: 0.375
